# Lookup of reported inhibition keyed by entry
# system under test: CHEK1 (human)
# protocol: radiometric filter-binding kinase assay
# setup conditions: compound 100.0 µM; ATP 20 µM
The reply should be a number in %, with the unit left off.

Examples from the recorded data:
>>> df
                           line_notation  value_measured
0  CC(C)(C)Nc1c(COCc2ccccc2)nc2[nH]cnn12               0
1       Nc1cnc2c(-c3c(F)cccc3F)cccn2c1=O               0

Look up inhibition for this compound: O=c1cc(-c2ccccc2F)nc2[nH]ccn12
4

----------
# Lookup of reported inhibition keyed by entry
# system under test: IKBKB (human)
# protocol: radiometric filter-binding kinase assay
# setup conditions: compound 100.0 µM; ATP 5 µM
The reply should be a number in %, with the unit left off.

Examples from the recorded data:
>>> print(df.to_string())
                                   compound  value_measured
0       COc1ccc(-c2cc3c(=O)[nH]cnc3s2)cc1OC              29
1          O=C(Nc1cnc2[nH]ccn2c1=O)c1ccccc1               0
2  CC1CN(c2nc3ccccn3c(=O)c2N)CC(C)O1 (stereo not given)              22
3             Cc1cccc(C)c1-c1cn2nc(N)nc2cn1               0
4           CC(=O)Nc1nc2cnc(-c3ccccc3)cn2n1              10

Next compound, inhibition to be filled in.
Look up inhibition for this compound: O=C(c1cccc(-c2cc3c(=O)[nH]cnc3s2)c1)N1CCOCC1
37

Data origin: the kinase profiling compilation of Christmann-Franck et al. (2016)
